Target: T1, similar peptide SP-05-0004, source protein not stated peptide on HLA-A*02:01 (human)
T1 peptide: KIWEWLVGV
Experiment: killing
measuredMetric: binding result

| binder | result |
| --- | --- |
| TCR-3 (TCR, V domains shown) Valpha: QKITQTQPGMFVQEKEAVTLDCTYDTSDQSYGLFWYKQPSSGEMIFLIYQGSYDEQNATEGRYSLNFQKARKSANLVISASQLGDSAMYFCGYSNYQLIWGAGTKLIIKP Vbeta: QVTQNPRYLITVTGKKLTVTCSQNMNHEYMSWYRQDPGLGLRQIYYSMNVEVTDKGDVPEGYKVSRKEKRNFPLILESPSPNQTSLYFCASREGTGGYQPQHFGDGTRLSIL | no recognition |
| TCR-4 (TCR, V domains shown) Valpha: QSVAQPEDQVNVAEGNPLTVKCTYSVSGNPYLFWYVQYPNRGLQFLLKYITGDNLVKGSYGFEAEFNKSQTSFHLKKPSALVSDSALYFCAAPRDDKIIFGKGTRLHILP Vbeta: GVTQTPKFRVLKTGQSMTLLCAQDMNHEYMYWYRQDPGMGLRLIHYSVGEGTTAKGEVPDGYNVSRLKKQNFLLGLESAAPSQTSVYFCASSYLRTGGNEQFFGPGTRLTVL | no recognition |
